Ref: paper PMC10249896

# target: PNCK Nano-luciferase fusion (Homo sapiens, UniProt Q6P2M8)
# Construct: host or cells: HEK293
# Sequence (Q6P2M8 whole entry, the tested form may be a part): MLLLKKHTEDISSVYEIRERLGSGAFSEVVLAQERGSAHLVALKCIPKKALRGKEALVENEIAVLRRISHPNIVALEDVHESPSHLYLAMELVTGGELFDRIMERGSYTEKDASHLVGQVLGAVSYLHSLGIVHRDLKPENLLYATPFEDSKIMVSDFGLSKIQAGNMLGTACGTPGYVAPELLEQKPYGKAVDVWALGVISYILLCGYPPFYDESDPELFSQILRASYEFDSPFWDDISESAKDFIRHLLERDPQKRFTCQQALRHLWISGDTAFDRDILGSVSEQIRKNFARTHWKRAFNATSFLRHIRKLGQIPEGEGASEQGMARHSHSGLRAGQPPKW
# testSummary: NanoBRET Target Engagement Intracellular Kinase Assay, cell-based PNCK binding screen and dose response in HEK293 cells
# conditionsUsed: compound 10uM; HEK293; K10 tracer 1uM; normalized to staurosporine and DMSO; read-out: Avg. Normalized % Inhibition, 10uM, Nanobret
For each entry below, report its inhibition at 10 µM value.
Please state the figure in %; there is no need to write the unit.

## Task Request - read-out inhibition at 10 µM | tested on PNCK Nano-luciferase fusion (Homo sapiens, UniProt Q6P2M8) | compound CC1CCc2c(sc(NC(=O)CSc3ncc(-c4ccc(F)cc4)[nH]3)c2C(N)=O)C1 (centres unmarked) [UM_252]
## Result 79.1

## Task Follow-up entry: CC(C)(C(=O)O)c1ccc(NS(=O)(=O)c2cc(F)c(F)cc2F)cc1 [UM_025]
## Result 17.2

## Task Another compound to look at: Cc1cc(NC(=O)[C@@H]2CCO[C@H]2c2nccn2C)nnc1C [UM_221]
## Result 14.7

## Task Oc1c(/C=N/c2ccc(Br)cn2)sc2ccccc12 [UM_234] , same question.
## Result 17.1

## Task Please do the same for O=C1CCCc2c1cnc1nc(N3CCCCC3)nc(O)c21 [UM_232] as well.
## Result 10.9

## Task Next entry: O=c1nc(CSc2nnc(-c3ccccc3)c3ccccc23)[nH][nH]1 [UM_022]
## Result 10.5

## Task Another: O=C1CNC(=O)N1CCCOc1ccc2c3c(c(=O)oc2c1)CCCCC3 [UM_258]
## Result 74

## Task Try Cc1nc2c(sc3nc(N4CCOCC4)c4c(c32)CC(C)(C)OC4)c(=O)o1 [UM_225] next.
## Result 47.7

## Task And then COc1ccccc1CNc1ncnc2sc(C(=O)O)c(C)c12 [UM_035] , what is it?
## Result 13.6

## Task Moving on to CC1CCc2c(sc(NC(=O)c3ccc([N+](=O)[O-])s3)c2C(N)=O)C1 (centres unmarked) [UM_250]
## Result 0

## Task Could you do the same for O=c1[nH]c(CSc2ccc3ccccc3n2)nc2ccc(Cl)cc12 [UM_210] , please?
## Result 98.5

## Task Then what about the compound CCOCCn1c(CN2CCN(CC)CC2)nc2c1c(O)nc(=O)n2C [UM_227] ?
## Result 49.4

## Task Please answer likewise for COc1ccccc1N(CCC(N)=O)C(=O)COc1ccc2c(c1)CCCC2=O [UM_249]
## Result 41.8

## Task Entry Cc1nc(N2CCC[C@H]3C(=O)NC[C@H]32)c2c(C)c(C)sc2n1 [UM_194] please
## Result 27.6

## Task Now consider COC(=O)c1cnc(Sc2nnc(-c3cccc4ccccc34)o2)cn1 [UM_254] and answer again.
## Result 68.2

## Task Proceed to Clc1nc(CN2CCCCC2)nc2sc3c(c12)CCC3 [UM_220]
## Result 27.1

## Task How about this compound: O=c1[nH]c(-c2ccc(-n3cccn3)nc2)nc2sc3ccccc3c12 [UM_208]
## Result 87.8

## Task Do the same for O=C(O)c1cccc(S(=O)(=O)Nc2nc3ccc(Cl)cc3s2)c1 [UM_203] please
## Result 22.7

## Task Can you check NC(=O)Nc1cccc(C(=O)Nc2cc3c(cc2Br)OCCO3)c1 [UM_222] next?
## Result 71.1

## Task Check CCn1c(SCCCn2c(=O)[nH]c3ccccc32)n[nH]c1=O [UM_274] too.
## Result 71.8

---

# target: PNCK Nano-luciferase fusion (Homo sapiens, UniProt Q6P2M8)
# Construct: host or cells: HEK293
# testSummary: NanoBRET Target Engagement Intracellular Kinase Assay, cell-based PNCK binding screen and dose response in HEK293 cells
# conditionsUsed: compound 10uM; HEK293; K10 tracer 1uM; normalized to staurosporine and DMSO; read-out: Avg. Normalized % Inhibition, 10uM, Nanobret
# Description: The NanoBRET Target Engagement Intracellular Kinase Assay (Promega N2520) is a cell-based binding screen which reads loss of BRET signal as a result of target binding. A PNCK Nano-luciferase fusion vector plasmid was generated custom by Promega. The K-10 tracer was used for the assay, as determined by Promega. The plasmid was maxiprepped by Genewiz for use in all future assays. […] The following day, cells were counted to 10,000, resuspended in assay media (Optimem with no phenol red, 1% FBS). […]
Quick rule: inhibition at 10 µM of at least 30% means yes, below that means no.

## Task I'd appreciate it if you could say whether O=C(O)c1cccnc1SCCCN1C(=O)c2cccc3cccc(c23)C1=O [UM_216] has inhibition at 10 µM at least equal to 30%.
## Result no

## Task One more molecule: Cc1c(C(=O)O)sc2ncnc(NCc3nncn3CCc3ccccc3)c12 [UM_033]
## Result no

## Task Another molecule to look at: N#Cc1cnc(Sc2nnc(C3CCCCC3)o2)cn1 [UM_256]
## Result yes

## Task Same question for O=C(COc1ccc2c3c(c(=O)oc2c1)CCCCC3)N1CCc2ccccc21 [UM_213] please.
## Result yes

## Task Another molecule to check: NC(=O)Cn1cnc2cc(-c3ccc(Cl)cc3)sc2c1=O [UM_219]
## Result yes

## Task Consider next the molecule COc1cccc([C@@H](C)NC(=O)c2ccc(N3CC(=O)NC3=O)cc2)c1 [UM_032] in the same way.
## Result no

---

Consider the following compounds; for each one, report its inhibition at 10 µM.
# target: GST-tagged PNCK recombinant protein (Homo sapiens, UniProt Q6P2M8)
# Construct: GST; purchased Novus NBP1-99886
# testSummary: ADP-Glo Kinase Assay, biochemical PNCK inhibitor screen
# conditionsUsed: compound 10uM; 25uM ATP; normalized to DMSO and staurosporine controls; read-out: Avg. Normalized % Inhibition, 10uM, ADP Kinase Glo
Give just the numeric value; % need not be written.

## Task Query: inhibition at 10 µM; subject: `Cc1c(C(=O)O)sc2ncnc(NCc3nncn3CCc3ccccc3)c12`
## Result 50.8

## Task And `Cc1ccccc1CN1CCC(CNc2ncnc3sc(C(=O)O)c(C)c23)CC1` ?
## Result 63.9

## Task Likewise for `CC(C)(C(=O)O)c1ccc(NS(=O)(=O)c2cc(F)c(F)cc2F)cc1` ?
## Result 75.3

---

# target: PNCK Nano-luciferase fusion (Homo sapiens, UniProt Q6P2M8)
# Construct: host or cells: HEK293
# testSummary: NanoBRET Target Engagement Intracellular Kinase Assay, cell-based PNCK binding screen and dose response in HEK293 cells
# conditionsUsed: compound 1uM; HEK293; K10 tracer 1uM; normalized to staurosporine and DMSO; read-out: Avg. Normalized % Inhibition, 1uM, Nanobret
# Excerpt: The NanoBRET Target Engagement Intracellular Kinase Assay (Promega N2520) is a cell-based binding screen which reads loss of BRET signal as a result of target binding. A PNCK Nano-luciferase fusion vector plasmid was generated custom by Promega. The K-10 tracer was used for the assay, as determined by Promega. The plasmid was maxiprepped by Genewiz for use in all future assays. […] The following day, cells were counted to 10,000, resuspended in assay media (Optimem with no phenol red, 1% FBS). […]
readoutLabel: inhibition at 1 µM (%)
Respond numerically; units are % and should not be typed.

## Task Would you mind telling me what inhibition at 1 µM value was observed for CC1CCc2c(sc(NC(=O)CSc3ncnc4[nH]cnc34)c2C(N)=O)C1 (centres unmarked) ?
## Result 63.2

## Task Field entry: CC1CCc2c(sc(NC(=O)c3ccc([N+](=O)[O-])s3)c2C(N)=O)C1 (centres unmarked)
## Result 0

## Task `O=c1[nH]c(CSc2ncccn2)nc2ccc(Cl)cc12` ?
## Result 10.9

## Task Moving on to `Cc1ccccc1CN1CCC(CNc2ncnc3sc(C(=O)O)c(C)c23)CC1`
## Result 7.16

## Task And then `Cc1nnc(SCCCn2c(=O)[nH]c3ccccc32)n1N` , what is it?
## Result 12

## Task Then what about the compound `CC(C)c1ccc(NS(=O)(=O)c2cc(-c3ccc(=O)[nH]n3)ccc2Cl)cc1` ?
## Result 0

## Task Also check `CCOCCn1c(CN2CCN(CC)CC2)nc2c1c(O)nc(=O)n2C`
## Result 22.4

## Task Field entry: `O=C(c1c(F)cc(F)cc1F)C1CCN(C(=O)c2ccnnc2)CC1`
## Result 0

## Task What about this compound? `Cn1cnn(CN2CCN(c3ccc(O)cc3)CC2)c1=S`
## Result 0

## Task And then `Cc1ccnc2nc(C(=O)OCC(=O)c3ccc(Cl)cc3Cl)nn12` , what is it?
## Result 2.17

## Task Same again, this time with `O=C(O)Cc1ccc(NS(=O)(=O)c2cccc(Cl)c2Cl)cc1`
## Result 0
